Assay notes: Precipitation/solubility limit of the top test concentration
Stated conditions: precipitation in 100× stock solution or upon addition to culture medium
Entries and their measured top non-precipitating conc. follow.
Quote the value and follow it with the unit of measurement.

Answered cases to consult:
CC(=O)Nc1ccc2c(c1)Cc1ccccc1-2	250 µM
Nc1ccc2cc3ccccc3cc2c1	500 µM
Cn1c(N)nc2ncc(-c3ccccc3)cc21	250 µM

// next item, top non-precipitating conc. requested
Input c1ccc2c(c1)cc1ccc3cccc4ccc2c1c34 [Benzo[a]pyrene] . Output top non-precipitating conc.: 250 µM

Data provenance is paper PMC4980245.
